Below is a list of entries, each paired with its recorded EC50 value.
Molecular target: recombinant p30 protein of ASFV (African swine fever virus (ASFV), UniProt P0C9Z3 1-181)
Assay: ELISA, IgG titrated on immobilized recombinant p30

Quick note, EC50 for p30-091 IgG (antibody, V domains shown) VH: EVQLVESGGGLVQPGGSLRLSCAASGFTISDYWIHWVRQAPGKGLEWVAYINPHYGLTDYADSVKGRFTISADTSKNTAYLQMNSLRAEDTAVYYCARGWLLDYWGQGTLVTVSS VL: DIQMTQSPSSLSASVGDRVTITCKSNQNLLDSGDQGTYLNWYQQKPGKAPKLLISDVSNLYSGVPSRFSGSGSGTDFTLTISSLQPEDFATYYCYQATSFPFTFGQGTKVEIKR landed at 2.6 ng/mL

---
Quick note, EC50 for p30-052 IgG (antibody, V domains shown) VH: EVQLVESGGGLVQPGGSLRLSCAASGFTIDSGFIHWVRQAPGKGLEWVAGIGPFWGFTFYADSVKGRFTISADTSKNTAYLQMNSLRAEDTAVYYCARYGSSSYGFDYWGQGTLVTVSS VL: DIQMTQSPSSLSASVGDRVTITCRASQDVDNNVAWYQQKPGKAPKLLISSPGFLYSGVPSRFSGSGSGTDFTLTISSLQPEDFATYYCQQYFNFPITFGQGTKVEIKR landed at 2 ng/mL

Quick note, EC50 for p30-090 IgG (antibody, V domains shown) VH: EVQLVESGGGLVQPGGSLRLSCAASGFTIDGGGIHWVRQAPGKGLEWVAGIWPSWGYTYYADSVKGRFTISADTSKNTAYLQMNSLRAEDTAVYYCARGFYWYDYWGQGTLVTVSS VL: DIQMTQSPSSLSASVGDRVTITCRASQDVNNDVAWYQQKPGKAPKLLIFYPGGLYSGVPSRFSGSGSGTDFTLTISSLQPEDFATYYCQQSWNYPLTFGQGTKVEIKR landed at 0.9 ng/mL

Quick note, EC50 for p30-077 IgG (antibody, V domains shown) VH: EVQLVESGGGLVQPGGSLRLSCAASGFTIGDWGIHWVRQAPGKGLEWVAGIWPFGGFTFYADSVKGRFTISADTSKNTAYLQMNSLRAEDTAVYYCARGSFYWDYWGQGTLVTVSS VL: DIQMTQSPSSLSASVGDRVTITCRASQDVNNNVAWYQQKPGKAPKLLISSPTYLYSGVPSRFSGSGSGTDFTLTISSLQPEDFATYYCQQWYDWPITFGQGTKVEIKR landed at 2.6 ng/mL

Sourced from patent US20250369970A1
